B1: CPEB3 Ribozyme (parent)
chain: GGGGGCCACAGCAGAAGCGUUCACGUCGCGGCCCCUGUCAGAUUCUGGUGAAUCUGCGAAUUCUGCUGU

Variants of: B1
Assay: self-cleavage, relative activity (ratio to wild type); higher = more cleavage; co-transcriptional
Label 1.0 when self-cleavage >= 0.8; otherwise 0.0.

| residues | category |
| --- | --- |
| GGGGGCCACAUCAGAAGCGUUCACGUCGCGGCCCCUGUCAGAUUCUGGUGAAUCUGCGAAUUCUGCUGA [G11U U69A] | 1.0 |
| GGGGGCCACAGCAGAAGCGUUCACGUCGCGGCCCCUGUCAGAUUCUGGUGAAUCUGGAAAUUCUGCUGU [C57G G58A] | 0.0 |
| GGGCGCCACAGCAGAAGCGAUCACGUCGCGGCCCCUGUCAGAUUCUGGUGAAUCUGCGAAUUCUGCUGU [G4C U20A] | 0.0 |
| GGGGGCCACAGCAGAAGCGUUCACGUCGCGGCCCCUGUCAGAGUCUGGUGAAUCUGCGGAUUCUGCUGU [U43G A59G] | 1.0 |
| AGGGGCCACAGCAGAAGCGUUCACGUCGCGGCCCCUGUCAGAUUCUGGUGAAUCUGCGGAUUCUGCUGU [G1A A59G] | 0.0 |
| GGGGGCCACAGCAGAAGCGUUCACGUCGCGGCCCCUGUCAGUUUCUGGUGAAUCUGCGAAUUCAGCUGU [A42U U64A] | 0.0 |
| GGGGGCCACAGCAGAAGCGUUCACGUCGCGCCCCCUGUCAGAUUCUGGUGAAUCUGCGAAUUCUACUGU [G31C G65A] | 0.0 |
| GGGGGCCACAGCUGAAGCGUUCACGUCGCGGCCCCUGUCAGAUUCUGGUGGAUCUGCGAAUUCUGCUGU [A13U A51G] | 1.0 |

Reference source: the RNAGym collection of RNA variant scans (doi:10.7554/elife.80360)
